Target: T1, RCD1-RST(499-572) (Arabidopsis thaliana, UniProt Q8RY59 499-572)
T1 construct: also called AtRCD1-RST; αα-hub RCD1-RST; source: E. coli BL21(DE3), purified (Source 15S cation exchange, Superdex 75 SEC)
T1 sequence (looked up): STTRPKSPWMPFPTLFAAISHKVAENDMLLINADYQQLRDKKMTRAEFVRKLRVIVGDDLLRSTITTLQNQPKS
Experiment: stopped-flow fluorescence spectroscopy; 0.1 µM FITC-DREB2A peptide mixed with 1-6 µM RCD1-RST(499-572) (kon); preformed complex 1:0.1 µM displaced with 5-60 µM unlabelled DREB2A(244-272) (koff); Kd from the rate constants; 10 °C, 50 mM HEPES pH 7.4, 100 mM NaCl
Conditions: both partners purified
Primed or numbered codes have the meaning given here. FITC′ = fluorescein isothiocyanate
kon values, listed per item
Write the answer as a number in M⁻¹ s⁻¹, unit excluded.

Worked cases, answers included:
{FITC′}-NDVDQSHLDSSDMFDVDELLRALNGDD-NH2 (peptide, UniProt O82132 246-272, looked up, also: acetylation stated, site not given here, also called DREB2A-D267A; DREB2A(244-272) variant D267A; source: synthetic peptide, bought: TAG Copenhagen A/S (>98% purity)) [FITC-DREB2A(246-272) D267A] = 2.22e+08
{FITC′}-NDVDQSHLDSSDMFDVDELLRLLNGDD-NH2 (peptide, UniProt O82132 246-272, looked up, also: acetylation stated, site not given here, also called fluorescently labeled DREB2A(244-272)-D267L; DREB2A-D267L; source: synthetic peptide, bought: TAG Copenhagen A/S (>98% purity)) [FITC-DREB2A(246-272) D267L] = 2.35e+08
{FITC′}-NDVDQSHLDSSDMFDVDELLGDLNGDD-NH2 (peptide, UniProt O82132 246-272, looked up, also: acetylation stated, site not given here, also called fluorescently labeled DREB2A(244-272)-R266G; DREB2A-R266G; source: synthetic peptide, bought: TAG Copenhagen A/S (>98% purity)) [FITC-DREB2A(246-272) R266G] = 2.3e+08

Please fill in: kon reported for {FITC′}-NDVDQSHLDSSDMFDVDELLADLNGDD-NH2 (peptide, UniProt O82132 246-272, looked up, also: acetylation stated, site not given here, also called DREB2A-R266A; DREB2A(244-272) variant R266A; source: synthetic peptide, bought: TAG Copenhagen A/S (>98% purity)) [FITC-DREB2A(246-272) R266A] = 2.46e+08
